# Tested on: Huh-7.5 viability, XTT absorbance
# test_name: Huh-7.5 cell viability reduction – absorbance, cytotoxicity control for HCV core dimerization inhibitor project, late-stage follow-up (AID 485280)
Calls of active or inactive are those of the source.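 Rule for the calls: active = CC50 of 24 µM or less, the dose killing half of Huh-7.5 liver cells, showing toxicity to them; inactive = no cytotoxicity, CC50 exceeds 24 µM.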
What CC50 was measured for each of the following?

Q: What does the record list as CC50 for COc1ccc(NC(=O)CN(C)C(=O)c2cc3c(s2)CCC3)cc1 ?
Ans: 123 µM (inactive)

Q: Record request: CC50 value, item COCCN(C(=O)COC(=O)c1cc2c(s1)CCC2)c1c(N)n(Cc2ccccc2)c(=O)[nH]c1=O
Ans: 141 µM (inactive)

Q: Would you kindly share the measured CC50 for Cc1ccccc1N1C(=O)/C(=C/c2ccco2)C(=O)NC1=S ?
Ans: 143 µM (inactive)

Q: Requested field: CC50. Item: O=C(/C=C/c1ccc(Br)o1)OCc1nc2ccsc2c(=O)[nH]1
Ans: 163 µM (inactive)

Q: Quick one: CC50 of Cc1ccc(Cc2c(C)nc3nc(SCC(=O)NCCCN4CCCCCC4)nn3c2C)cc1 ?
Ans: 27.4 µM (inactive)

Q: Give the measured CC50 of CCN(CC(=O)Nc1c(F)cccc1F)C(=O)/C=C/c1ccc2ccccc2n1 .
Ans: 148 µM (inactive)

Q: Field request: CC50 | item: CCCCCC#CCC#CCC#CCC#CCCCC(=O)O
Ans: 179 µM (inactive)
